target: CDK2 enzyme, complexed with cyclin A (Homo sapiens, UniProt P24941); assay: CDK2 cyclin dependent kinase assay, phosphorylation of synthetic peptide […] (33P-ATP filtration); format: biochemical; details: Table 1; 0.1 mM ATP
pIC50: −log10 of the molar value.
QUANTITY KIND: pIC50

A: O=S(=O)(c1ccc(Nc2cc(Cl)nc3ncnn23)cc1)N1CCC(O)CC1
B: Cc1cccc(-c2cc(Nc3ccc(C#N)cc3)n3ncnc3n2)c1
C: NS(=O)(=O)c1ccc(Nc2cc(N3CCCC(CO)C3)nc3ncnn23)cc1 (centres unmarked)
D: C[C@H]1CCCC(Oc2cc(Nc3ccc(S(N)(=O)=O)cc3)n3ncnc3n2)C1 (some centres unmarked)
E: COc1ccc(Nc2cc(Cl)nc3ncnn23)cn1
Sort the entries above numerically by pIC50, high end first. Reply with the labels, ordered as the question asks.
C, D, E, A, B
(C: 6.48, D: 5.19, E: 4.93, A: 4.64, B: 4.24)
